ASSAY METHOD TEXT: Partition coefficient, log K of the compound in n-hexane/methyl tert-butylether/acetonitrile 10:1:10 solvent system by HSCCC/EECCC analysis
Type: physicochemical
READOUT LABEL: log K
Please reply with the number alone, leaving off any unit.

In the examples that follow, each entry is paired with its recorded log K.
C=C1CC/C=C(\C)CC[C@@H]2[C@@H]1CC2(C)C :: 2.98
C=C(C)[C@H]1CC[C@@H](C)C[C@H]1O (relative stereo) :: 2.98
CC(=O)OCCC(C)CCC=C(C)C (stereo not given) [CITRONELLYL ACETATE] :: 1.55

Read the entry CC(C)=CCC[C@H](C)CC=O [(-)-CITRONELLAL] and write its reported log K.
1.02

Read the entry `CC1=CC[C@H]2C(C)=CC[C@@H](C(C)C)[C@@H]2C1` and write its reported log K.
2.98

* * *

ASSAY METHOD TEXT: Partition coefficient, log K of the compound in n-hexane/methyl tert-butylether/acetonitrile 10:1:10 solvent system by HSCCC/EECCC analysis
Format: physicochemical
Below, each entry is listed alongside its reported log K.
Please reply with the number alone, leaving off any unit.

C=C(C)[C@@H]1CC[C@@]2(C)CCCC(=C)[C@@H]2C1 [BETA-SELINENE] :: 1.79

Attention now turns to another entry.
Read the entry CC(C)=CCCC(C)CCO (stereo not given) [CITRONELLOL] and write its reported log K.
0.69

* * *

ASSAY METHOD TEXT: Partition coefficient, log K of the compound in n-hexane/methyl tert-butylether/acetonitrile 10:1:10 solvent system by HSCCC/EECCC analysis
Format: physicochemical
READOUT LABEL: log K
Please reply with the number alone, leaving off any unit.

C=C1CC[C@@H]2[C@H]([C@H]3[C@H]1CC[C@]3(C)O)C2(C)C :: 1.18
C=CC(C)(O)CCC=C(C)C (stereo unspecified) :: 0.74
CC1=C[C@H]2[C@H](C(C)C)CC[C@@H](C)[C@]2(O)CC1 :: 1.8
C=C1CCC[C@]2(C)CC[C@@H](C(C)(C)O)C[C@@H]12 :: 1.6
C[C@@H]1CC[C@@H](C(C)(C)O)C(O)C1 (stereo partly specified) :: 0.87
C=C(C)[C@@H]1CC[C@@H](C)C[C@H]1OC(C)=O :: 1.55
C[C@@H]1CC[C@H]2[C@@H]1[C@H]1[C@@H](CC[C@]2(C)O)C1(C)C :: 1.55
C=C(C)[C@@H]1CC[C@@H](C)C[C@H]1O :: 0.87

Read the entry C=C(C)[C@H]1CC[C@H](C)C[C@H]1O (relative stereo) and write its reported log K.
0.82

Read the entry `C[C@@H]1CC[C@@H]2[C@@H]1[C@H]1[C@@H](CC[C@@]2(C)O)C1(C)C` and write its reported log K.
1.79

Read the entry `C/C1=C\CC(C)(C)/C=C/C[C@@]2(C)O[C@@H]2CC1` and write its reported log K.
1.55

Read the entry `CC(C)=CCC/C(C)=C/CC/C(C)=C/C=O` and write its reported log K.
1.79

Read the entry CC1=C[C@@H]2C(=C(C)CC[C@H]2C(C)C)CC1 [(+)-DELTA-CADINENE] and write its reported log K.
2.98

Read the entry `CC(C)=CCC/C(C)=C/CC/C(C)=C/CO` and write its reported log K.
1.79

Read the entry `C=C1CCCC(C)(C)[C@H]2C=C(C)CC[C@@H]12` and write its reported log K.
1.6

* * *

Test system: Mycobacterium tuberculosis
ASSAY METHOD TEXT: Antimicrobial activity against Mycobacterium tuberculosis H37Rv by BACTEC radiometric assay
Format: functional
Below, each entry is listed alongside its reported MIC.

In the examples that follow, each entry is paired with its recorded MIC.
CC(C)=CCC/C(C)=C/CO :: 64 µg/mL
CC(C)=CCC/C(C)=C/CC/C(C)=C/CO :: 8 µg/mL
CC(C)=CCC/C(C)=C\CO :: 128 µg/mL

Attention now turns to another entry.
Send back Mycobacterium tuberculosis MIC of CC(C)=CCCC(C)CCO (centres undefined) only.
64 µg/mL

* * *

ASSAY METHOD TEXT: Partition coefficient, log K of the compound in n-hexane/methyl tert-butylether/acetonitrile 10:1:10 solvent system by HSCCC/EECCC analysis
Format: physicochemical
Below, each entry is listed alongside its reported log K.
Please reply with the number alone, leaving off any unit.

Cc1cc(C(C)(C)C)cc(C(C)(C)C)c1O :: 1.79
CC1=C[C@@H]2[C@@H](CC1)[C@@](C)(O)CC[C@H]2C(C)C :: 1.55

Attention now turns to another entry.
Read the entry `CC1=CCC[C@]2(C)CC[C@@H](C(C)(C)O)C[C@@H]12` and write its reported log K.
1.8

* * *

ASSAY METHOD TEXT: Partition coefficient, log K of the compound in n-hexane/methyl tert-butylether/acetonitrile 10:1:10 solvent system by HSCCC/EECCC analysis
Assay type: physicochemical
Below, each entry is listed alongside its reported log K.
Please reply with the number alone, leaving off any unit.

CC(C)=CCC/C(C)=C/CC/C(C)=C/CC/C(C)=C/CO [GERANYLGERANIOL] :: 1.6
CC1=CC[C@@H](C(C)(C)O)CC1 [ALPHA-TERPINEOL] :: 0.82
C[C@H]1CC[C@@H]2[C@H]1[C@@H]1[C@H](CC[C@]2(C)O)C1(C)C :: 1.18
CC12CCCCC1=CC(=O)CC2 (stereo unspecified) :: 1.55
C=C1CC[C@@H]2[C@H]([C@@H]3[C@H](C)CC[C@H]13)C2(C)C :: 2.98

Attention now turns to another entry.
Read the entry `CC1(C)C[C@H]2[C@H]1CC[C@]1(C)CCC[C@@]2(O)C1` and write its reported log K.
1.6
